- Tested on: SH-SY5Y M-currents (KCNQ2, KCNQ3 and KCNQ5)
- ASSAY_INFO: SH-SY5Y native cell line FLIPR assay (voltage-sensitive dye DiBAC)
- Type: cell-based, mouse neuroblastoma, rat glioma hybrid cell line
- CONDITION_INFO: FLIPR assay, SH-SY5Y native cell line; Table 2; read-out: SH-SY5Y EC50
pEC50: −log10 of the molar value.
ENDPOINT_NAME: pEC50

> print(dat)
                                   compound                               test.system  endpoint.name      measured
1  CC(C)(C)CC(=O)Nc1nc2ccc(F)cn2c1-c1ccccc1 [Compound 93]  SH-SY5Y M-currents (KCNQ2, KCNQ3 and KCNQ5)          pEC50  5.52 to 6.30

Please state pEC50 for every compound in the list that follows.
1. O=C(Cc1ccc(F)cc1)Nc1nc2ccc(C(F)(F)F)cn2c1-c1ccc(F)cc1 [Compound 121]
2. CC(C)(C)CC(=O)Nc1nc2cc(C(F)(F)F)ccn2c1-c1ccccc1 [Compound 100]

Response given:
1: > 6.30; 2: 5.52 to 6.30

Would you mind listing pEC50 for each of the following compounds?
1. O=C(Cc1ccc(F)cc1)Nc1nc2ccccn2c1-c1ccc(F)cc1 [Compound 203]
2. CC(C)(C)CC(=O)Nc1nc2ccc(F)cn2c1-c1ccc(F)c(F)c1 [Compound 212]
3. O=C(CC(F)(F)F)Nc1nc2cc(C(F)(F)F)ccn2c1-c1ccccc1 [Compound 104]

Response given:
1. 5.52 to 6.30
2. > 6.30
3. 5.00 to 5.52
